Biological target: SARS-CoV-2 3CLpro (Severe acute respiratory syndrome coronavirus 2, UniProt P0DTD1)
Experiment: biochemical
Format: biochemical
Settings: 4 h, read-out: Replicate_2
Below is a list of entries, each paired with its recorded inhibition at 5 µM value.
MEASUREMENT_LABEL: inhibition at 5 µM (%)

compound="CC(=O)c1c(O)c(C)c(O)c(Cc2c(O)c3c(c(C(=O)/C=C/c4ccccc4)c2O)OC(C)(C)C=C3)c1O [Rottlerin]" measured=5.11
compound="Oc1ccc(/C=C/c2cc(O)cc(O)c2)cc1 [Resveratrol]" measured=-6.92
compound="C=CC1=C(C)c2cc3[nH]c(cc4nc(cc5[nH]c(cc1n2)c(C)c5CCC(=O)O)C(CCC(=O)O)=C4C)c(C)c3C=C [Protoporphyrin IX disodium]" measured=2.42
compound="O=C(O)CCc1nc(-c2ccccc2)c(-c2ccccc2)o1 [Oxaprozin]" measured=3.25
